- Study system: recombinant human mGlu4a receptor (Homo sapiens)
- Construct: expressed in transfected cells
- Experimental details: mGluR4 assay on T-Rex-293 cell line; cyclic AMP level by HTRF in the presence of forskolin and glutamate
- Type: cell-based
- Experimental parameters: T-REx-293; percent of mGluR4 activity with tested compound and glutamate at maximally activating concentration (100%); mean of at least three independent experiments; read-out: % Glu Max
Measurement label: Emax

Examples with answers:
| Cpd smiles | Result |
| --- | --- |
| COc1cc(NC(=O)c2cccc(F)n2)ccc1-c1noc(-c2ccccc2F)n1 | 105 to 135% |
| O=C(Nc1ccc(-c2nc(-c3ccccc3)no2)cc1)c1ccc([N+](=O)[O-])cc1 | 105 to 135% |
| COc1cc(NC(=O)c2cccc(Cl)n2)ccc1-c1noc(-c2ccccc2Cl)n1 | 99.2 to 119% |

Prompt: Any idea what its Emax is? The compound is COc1cc(NC(=O)c2ccncn2)ccc1-c1noc(-c2ccccc2Cl)n1
Response: 105 to 135%

Prompt: // same read-out, input: O=C(Nc1ccc(-c2nc(-c3ccccc3)no2)cc1)c1cccc(Cl)c1
Response: 99.2 to 119%

Prompt: // same read-out, input: O=C(Nc1ccc(-c2noc(-c3ccccc3Cl)n2)c(Cl)c1)c1cccc(F)n1
Response: 99.2 to 119%

---

- Study system: recombinant human mGlu4a receptor (Homo sapiens)
- Construct: expressed in transfected cells
- Experimental details: mGluR4 assay on T-Rex-293 cell line; cyclic AMP level by HTRF in the presence of forskolin and glutamate
- Assay type: cell-based
- Experimental parameters: T-REx-293; percent of mGluR4 activity with tested compound and glutamate at maximally activating concentration (100%); mean of at least three independent experiments; read-out: % Glu Max
Measurement label: Emax

Examples with answers:
| Cpd smiles | Emax |
| --- | --- |
| O=C(Nc1ccc(-c2nc(-c3ccccc3)no2)cc1)c1ccccc1 | 99.2 to 119% |
| O=C(Nc1ccc(-c2noc(-c3ccc(F)cc3Cl)n2)c(F)c1)c1ccccn1 | 105 to 135% |
| O=S(=O)(Nc1ccc(F)cc1F)c1ccc(-c2noc(-c3ccccn3)n2)cc1 | 99.2 to 119% |

Prompt: Any idea what its Emax is? The molecule is COc1ccccc1-c1nc(-c2ccc(NC(=O)c3ccccn3)cc2F)no1
Response: 105 to 118%

Prompt: // same read-out, input: COc1ccc(C(=O)Nc2ccc(-c3nc(-c4ccccc4)no3)cc2)cc1
Response: 105 to 118%

Prompt: // same read-out, input: O=C(Nc1ccc(-c2noc(-c3ccccc3Cl)n2)c(C(F)(F)F)c1)c1ccccn1
Response: 99.2 to 119%

Prompt: // same read-out, input: COc1cc(NC(=O)c2ccccn2)ccc1-c1noc(-c2ccccc2Cl)n1
Response: 99.2 to 119%

Prompt: // same read-out, input: COc1cc(NC(=O)c2cccc(F)n2)ccc1-c1noc(-c2ccccc2Cl)n1
Response: 99.2 to 119%

Prompt: // same read-out, input: O=C(Nc1ccc(-c2noc(-c3ccc(F)cc3Cl)n2)c(Cl)c1)c1ccccn1
Response: 99.2 to 119%

---

- Study system: recombinant human mGlu4a receptor (Homo sapiens, UniProt Q14833)
- Sequence (Q14833 33-912): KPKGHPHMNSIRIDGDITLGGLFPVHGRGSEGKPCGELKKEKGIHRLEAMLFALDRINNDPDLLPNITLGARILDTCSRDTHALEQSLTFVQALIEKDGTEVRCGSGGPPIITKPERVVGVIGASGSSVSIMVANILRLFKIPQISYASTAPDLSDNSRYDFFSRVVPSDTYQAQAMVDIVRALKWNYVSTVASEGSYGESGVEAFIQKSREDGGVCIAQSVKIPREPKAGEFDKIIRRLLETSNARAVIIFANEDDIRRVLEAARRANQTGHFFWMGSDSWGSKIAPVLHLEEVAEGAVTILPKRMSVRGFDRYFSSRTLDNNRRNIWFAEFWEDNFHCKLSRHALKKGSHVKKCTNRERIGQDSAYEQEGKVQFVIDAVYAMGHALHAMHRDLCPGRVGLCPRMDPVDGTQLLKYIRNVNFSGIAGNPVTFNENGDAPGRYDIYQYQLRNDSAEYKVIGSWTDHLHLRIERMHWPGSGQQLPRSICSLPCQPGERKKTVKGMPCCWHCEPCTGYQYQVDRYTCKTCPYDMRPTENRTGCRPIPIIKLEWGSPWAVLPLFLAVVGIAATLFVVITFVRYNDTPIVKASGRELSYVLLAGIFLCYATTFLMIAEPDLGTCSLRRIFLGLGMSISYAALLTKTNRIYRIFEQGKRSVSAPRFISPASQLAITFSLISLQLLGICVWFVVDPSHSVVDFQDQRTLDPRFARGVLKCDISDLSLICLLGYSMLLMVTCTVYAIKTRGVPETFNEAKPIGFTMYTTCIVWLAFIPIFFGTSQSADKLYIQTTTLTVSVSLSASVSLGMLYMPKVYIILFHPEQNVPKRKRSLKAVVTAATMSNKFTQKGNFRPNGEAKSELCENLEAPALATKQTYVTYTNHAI
- Experimental details: mGluR4 assay on T-Rex-293 cell line; cyclic AMP level by HTRF in the presence of forskolin and glutamate
- Experimental parameters: EC50 for potentiation of glutamate response; forskolin 10 uM; mean of at least three independent experiments in duplicates
pEC50: −log10 of the molar value.
Some compounds, each annotated with its measured pEC50.

| Compound | pEC50 |
| --- | --- |
| COc1ccc(C(=O)Nc2ccc(-c3nc(-c4ccccc4)no3)cc2)cc1 [Example 49] | > 6.52 |
| COc1ccccc1-c1nc(-c2ccc(NC(=O)c3ccccn3)cc2F)no1 [Example 27] | > 6.52 |
| O=C(Nc1ccc(-c2noc(-c3ccccc3)n2)c(C(F)(F)F)c1)c1ccccn1 [Example 28] | > 6.52 |

Now turn to the next compound.
Prompt: Any idea what its pEC50 is? The compound is Cc1cc(NC(=O)c2ccccn2)ccc1-c1noc(-c2ccccc2)n1 [Example 30]
Response: > 6.52

---

Some compounds, each annotated with its measured Emax.
- Study system: recombinant human mGlu4a receptor (Homo sapiens, UniProt Q14833)
- Construct: expressed in transfected cells
- Experimental details: mGluR4 assay on T-Rex-293 cell line; cyclic AMP level by HTRF in the presence of forskolin and glutamate
- Type: cell-based
- Experimental parameters: T-REx-293; percent of mGluR4 activity with tested compound and glutamate at maximally activating concentration (100%); mean of at least three independent experiments; read-out: % Glu Max

| Cpd smiles | Result |
| --- | --- |
| COc1cc(NC(=O)c2ncc(Cl)cc2F)ccc1-c1noc(-c2ccccc2Cl)n1 | 99.2 to 119% |
| O=S(=O)(Nc1ccccc1Cl)c1ccc(-c2noc(-c3ccccc3)n2)cc1 | 99.2 to 119% |
| Cn1cccc1C(=O)Nc1ccc(-c2nc(-c3ccccc3)no2)cc1 | 99.2 to 119% |
| Cc1cc(NC(=O)c2ccccn2)ccc1-c1noc(-c2ccccc2Cl)n1 | 105 to 135% |
| COc1cc(NC(=O)c2ccccn2)ccc1-c1noc(-c2ccc(F)cc2Cl)n1 | 99.2 to 119% |
| O=C(Nc1ccc(-c2noc(-c3ccccc3)n2)c(C(F)(F)F)c1)c1ccccn1 | 105 to 118% |
| Cc1cc(NC(=O)c2ccccn2)ccc1-c1noc(-c2ccccc2)n1 | 105 to 118% |
| COc1ccc(-c2nc(-c3ccc(NC(=O)c4ccncc4)cc3)no2)cc1 | 105 to 135% |

Prompt: Any idea what its Emax is? The compound is COc1cc(NC(=O)c2nc(Cl)ccc2Cl)ccc1-c1noc(-c2ccccc2F)n1
Response: 99.2 to 119%

Values from patent EP2853532B1
